Values from patent US20230331803A1

- system_name: human amylin receptor (hAmyR3) (Homo sapiens, UniProt O60896+P30988)
- Construct: host or cells: BHK cells (Hollex-1 line: human calcitonin receptor (a) + CRE-Luc), further transfected with human RAMP3
- Sequence (P30988 25-474): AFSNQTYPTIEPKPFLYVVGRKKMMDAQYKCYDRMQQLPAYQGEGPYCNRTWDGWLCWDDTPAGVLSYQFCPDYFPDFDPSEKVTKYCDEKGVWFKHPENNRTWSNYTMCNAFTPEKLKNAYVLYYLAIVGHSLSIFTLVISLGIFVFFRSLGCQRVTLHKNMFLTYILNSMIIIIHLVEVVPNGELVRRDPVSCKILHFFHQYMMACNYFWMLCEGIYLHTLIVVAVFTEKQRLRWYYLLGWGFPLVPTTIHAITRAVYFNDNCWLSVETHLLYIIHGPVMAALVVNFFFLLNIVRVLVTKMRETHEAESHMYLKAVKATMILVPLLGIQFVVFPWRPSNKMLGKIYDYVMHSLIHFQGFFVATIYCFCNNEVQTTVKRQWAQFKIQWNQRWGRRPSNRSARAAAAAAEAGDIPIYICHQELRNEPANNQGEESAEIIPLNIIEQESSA
- Sequence (O60896 24-148): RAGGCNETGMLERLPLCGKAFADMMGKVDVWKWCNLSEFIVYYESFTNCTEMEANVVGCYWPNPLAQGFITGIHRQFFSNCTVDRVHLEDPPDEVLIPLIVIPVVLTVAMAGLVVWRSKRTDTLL
- test: Human amylin receptor in vitro potency assay (CRE-luciferase reporter, BHK cells);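 also: BHK cells expressing human calcitonin receptor plus RAMP3 (amylin-3 receptor) with a CRE-luciferase reporter, agonist activity read as luminescence from cAMP-driven transcription, 7-point serial dilutions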
- Format: cell-based
- conditions: Table 4a; BHK hAmyR3/CRE-Luc cells, 3 hours; read-out: Human AmyR3 potency [EC50 (pM)]
Starred links: 1 amine or outer side, 2 acyl side, 3 side chain; linkers in the order of their positions; H or OH if unused. Non-standard residues stand in square brackets, D forms with d. Groups on a side chain read outwards from the residue. *: point of attachment. Butyryl(4-SO2NHCO(CH2)16Tz) = O=C(CCCCCCCCCCCCCCCCc1nnn[nH]1)NS(=O)(=O)CCCC(=O)*; Decanoyl(10-O(3-COOH-Ph)) = O=C(O)c1cccc(OCCCCCCCCCC(=O)*)c1; C20 diacid = O=C(O)CCCCCCCCCCCCCCCCCCC(=O)*; C18 diacid = O=C(O)CCCCCCCCCCCCCCCCC(=O)*; C16 diacid = O=C(O)CCCCCCCCCCCCCCC(=O)*; γGlu = O=C(O)[C@H](CCC(=O)[*:2])N[*:1]; εLys = N[C@@H](CCCCN[*:1])C(=O)[*:2]; Trx = NC[C@H]1CC[C@H](C(=O)O)CC1; AEEA = NCCOCCOCC(=O)O; Aib = CC(C)(N)C(=O)O
observed_property: log10(EC50) (log10 of the value in pM)

{"columns": ["substance", "log10(EC50)"],
 "data": [
  ["H-H[Aib]EGTFTSDVSSYLEEQAAREFIEWLVRGRK([AEEA-AEEA-γGlu-Trx-C20 diacid])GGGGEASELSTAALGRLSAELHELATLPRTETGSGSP-NH2 [Compound 0503]", 0.89],
  ["H-H[Aib]EGTFTSDVSSYLEEQAARK([εLys-AEEA-AEEA-γGlu-Trx-C20 diacid])FIEWLVRGRGEASELSTAALGRLSAELHELATLPRTETGSGSP-NH2 [Compound 0439]", 1.03],
  ["H-H[Aib]EGTFTSDVSK([AEEA-AEEA-γGlu-C16 diacid])YLEEQAVREFIAK([AEEA-AEEA-γGlu-C16 diacid])LVRGRGGGEASELSTAALGRLSAELHELATLPRTETGSGSP-NH2 [Compound 0483]", 1.57],
  ["H-H[Aib]EGTFTSDVSSYLEEQAAREFIAWLVRGK([AEEA-AEEA-γGlu-C16 diacid])GGGGGEASELSTAALGRLSAELHK([AEEA-AEEA-γGlu-C16 diacid])LATLPRTETGSGSP-NH2 [Compound 0280]", 1.26],
  ["H[Aib]EGTFTSDVSSYLEEQAARK([AEEA-AEEA-γGlu-C18 diacid])FIAWLVRGK([AEEA-AEEA-γGlu-C18 diacid])GGEASELSTAALGRLSAELHELATLPRTETGSGSP-NH2 [Compound 0127]", 1.81],
  ["H-H[Aib]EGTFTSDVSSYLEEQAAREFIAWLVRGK([AEEA-AEEA-γGlu-C18 diacid])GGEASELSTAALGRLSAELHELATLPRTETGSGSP-NH2 [Compound 0132]", 1.54],
  ["H-H[Aib]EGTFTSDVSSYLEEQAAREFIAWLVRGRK(Butyryl(4-SO2NHCO(CH2)16Tz))ELSTAALGRLSAELHELATLPRTETGSGSP-NH2 [Compound 0102]", 0.99],
  ["H-H[Aib]EGTFTSDVSSYLEEQAAREFIEWLVRGK(Butyryl(4-SO2NHCO(CH2)16Tz))ASELSTAALGRLSAELHELATLPRTETGSGSP-NH2 [Compound 0147]", 1.53],
  ["H-H[Aib]EGTFTSDVSK([AEEA-AEEA-γGlu-C16 diacid])YLEEQAARK([AEEA-AEEA-γGlu-C16 diacid])FIEWLVRGRGEGGGGGASELSTAALGRLSAELHELATLPRTETGSGSP-NH2 [Compound 0576]", 1.00],
  ["H-H[Aib]EGTFTSDVSSYLEEQAARK([AEEA-AEEA-γGlu-C18 diacid])FIAWLVRGRGGGGGEASELSTAALGRLSAELHELATLPRTETGSGSP-NH2 [Compound 0639]", 0.66],
  ["H-H[Aib]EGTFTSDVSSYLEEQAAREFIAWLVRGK([AEEA-AEEA-γGlu-Decanoyl(10-O(3-COOH-Ph))])K([AEEA-AEEA-γGlu-Decanoyl(10-O(3-COOH-Ph))])GGGGASELSTAALGRLSAELHELATLPRTETGSGSP-NH2 [Compound 0235]", 1.38]
]}
